TARGET OR SYSTEM: TACE (ADAM17) (Homo sapiens)
Construct: made in house; host or cells: mammalian cells or insect cells
ASSAY INFO: TACE (ADAM17) inhibition test
Format: biochemical
CONDITION LABEL: fluorescent synthetic substrate, 37° C. for 1.5 hours; read-out: TACE IC50
pIC50: −log10 of the molar value.
Exercise: for every item that follows, state its recorded pIC50.

Which measured pIC50 value corresponds to N#Cc1ccc(C2(Cn3cccc(F)c3=O)NC(=O)NC2=O)cc1 (racemic) ? > 7.00

Which measured pIC50 value corresponds to COc1cc(C2(Cn3cccc(C)c3=O)NC(=O)NC2=O)cc(F)c1F (racemic) ? > 7.00

Which measured pIC50 value corresponds to Cc1cccn(CC2(c3cccc(-c4ccccn4)c3)NC(=O)NC2=O)c1=O (racemic) ? > 7.00

----------
TARGET OR SYSTEM: TACE (ADAM17) (Homo sapiens, UniProt P78536)
Construct: made in house; host or cells: mammalian cells or insect cells
Sequence (P78536 215-824): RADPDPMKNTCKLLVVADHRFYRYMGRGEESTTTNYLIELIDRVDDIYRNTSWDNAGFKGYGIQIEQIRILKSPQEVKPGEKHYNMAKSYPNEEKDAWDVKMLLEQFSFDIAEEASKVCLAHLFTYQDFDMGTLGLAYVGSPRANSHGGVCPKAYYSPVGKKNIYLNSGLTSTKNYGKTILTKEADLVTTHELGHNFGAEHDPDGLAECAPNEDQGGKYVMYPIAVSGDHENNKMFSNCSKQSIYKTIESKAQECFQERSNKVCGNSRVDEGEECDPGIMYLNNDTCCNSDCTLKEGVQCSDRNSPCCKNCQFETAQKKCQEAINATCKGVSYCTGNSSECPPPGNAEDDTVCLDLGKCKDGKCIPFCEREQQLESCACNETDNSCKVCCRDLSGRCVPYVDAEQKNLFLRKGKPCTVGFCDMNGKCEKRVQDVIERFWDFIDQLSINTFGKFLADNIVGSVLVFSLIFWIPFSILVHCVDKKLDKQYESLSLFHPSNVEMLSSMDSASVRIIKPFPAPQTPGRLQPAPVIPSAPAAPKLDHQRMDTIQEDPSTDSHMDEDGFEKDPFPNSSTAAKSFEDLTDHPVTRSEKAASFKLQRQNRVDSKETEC
ASSAY INFO: TACE (ADAM17) inhibition test
Format: biochemical
CONDITION LABEL: fluorescent synthetic substrate, 37° C. for 1.5 hours; read-out: TACE IC50
pIC50: −log10 of the molar value.
PROPERTY NAME: pIC50

Which measured pIC50 value corresponds to O=C1NC(=O)C(Cn2cccc(F)c2=O)(c2ccc(Cc3ccccc3)cc2)N1 (racemic) ? ≤ 7.00

Which measured pIC50 value corresponds to COc1ccc(C2(Cn3cccc(F)c3=O)NC(=O)NC2=O)cc1 (racemic) ? > 7.00

Which measured pIC50 value corresponds to CCOc1ccc(C2(Cn3cccc(C)c3=O)NC(=O)NC2=O)cc1 (racemic) ? > 7.00

Which measured pIC50 value corresponds to O=C1NC(=O)C(Cn2ccccc2=O)(c2ccc(F)c(F)c2)N1 (racemic) ? > 7.00

Which measured pIC50 value corresponds to Cc1cccn(CC2(c3ccc(Oc4ccccc4)c(Cl)c3)NC(=O)NC2=O)c1=O (racemic) ? > 7.00

Which measured pIC50 value corresponds to Cc1cccn(CC2(c3ccccc3OCc3ccccc3)NC(=O)NC2=O)c1=O (racemic) ? ≤ 7.00

Which measured pIC50 value corresponds to COc1cccc(-c2ccc(C3(Cn4cccc(C)c4=O)NC(=O)NC3=O)cc2)c1 (racemic) ? > 7.00

Which measured pIC50 value corresponds to Cc1cccn(CC2(c3cccc(C#CC(C)(C)C)c3)NC(=O)NC2=O)c1=O (racemic) ? ≤ 7.00

Which measured pIC50 value corresponds to O=C1NC(=O)C(Cn2ccccc2=O)(c2ccccc2)N1 (racemic) ? > 7.00

Which measured pIC50 value corresponds to Cc1cccn(CC2(c3ccc(OC4CCCC4)cc3)NC(=O)NC2=O)c1=O (racemic) ? > 7.00

Which measured pIC50 value corresponds to COc1ccc(F)cc1C1(Cn2cccc(C)c2=O)NC(=O)NC1=O (racemic) ? > 7.00

Which measured pIC50 value corresponds to CCc1ccc(C2(Cn3cccc(C)c3=O)NC(=O)NC2=O)cc1 (racemic) ? > 7.00

Which measured pIC50 value corresponds to O=C1NC(=O)C(Cn2ccccc2=O)(c2ccc(Cc3ccccc3)cc2)N1 (racemic) ? ≤ 7.00

Which measured pIC50 value corresponds to Cc1cccn(CC2(c3cccc(-c4ccc(F)cn4)c3)NC(=O)NC2=O)c1=O (racemic) ? > 7.00

Which measured pIC50 value corresponds to Cc1noc(C)c1-c1ccc(C2(Cn3cccc(C)c3=O)NC(=O)NC2=O)cc1 (racemic) ? > 7.00

Which measured pIC50 value corresponds to COCOc1ccc(C2(Cn3cccc(C)c3=O)NC(=O)NC2=O)cc1 (racemic) ? > 7.00
